Experiment: Phase 1 SAD/MAD study: plasma pharmacokinetics of Compound 1a (LC-MS-MS, noncompartmental analysis)
Format: in vivo, human
Settings: human, plasma, po, 1000 mg, SAD 1,000 mg oral, fasted, average, plasma; read-out: AUC0-24
Experimental: Pharmacokinetics: Human K2-ethylenediaminetetraacetic acid (K2-EDTA) plasma samples were analyzed for Compound 1a by a validated method over a range of 1.0 to 1000 ng/mL based on the analysis of 100 μL of sample. Human plasma containing Compound 1a and the internal standard, Compound 1a-D4, was extracted using liquid-liquid extraction and analyzed by a Sciex API 4000 LC-MS-MS equipped with an HPLC column. […]
quantity_kind: AUC(0-t) (µg·h/mL)
The answer is to be given in µg·h/mL; state only the numeric part.

Lab book: AUC(0-t) of O.O=C([O-])c1nn[nH]c1Oc1ccc(-c2ccc(C3CC(F)(F)C3)cc2)cc1.[Na+] [Compound 1a] noted as 174
